Origin of values: paper PMC12117711

- targetEntity: His6-CRBN/DDB1 (Homo sapiens)
- measurementProtocol: TR-FRET ligand displacement assay (Thal-FITC tracer) with His6-CRBN/DDB1
- runConditions: IC50 (M), Protein CRBN; Thalidomide-FITC tracer 50 nM; protein […]
Residues, ends and D or L forms follow the SMILES beside them. *: point of attachment. Aspartimide = O=C1C[C@H](N*)C(=O)N1; Fmoc = O=C(OCC1c2ccccc2-c2ccccc21)*; X3 = O=C1CC[C@@H](N*)C(=O)N1; X1 = O=C1C[C@@H](N*)C(=O)N1; X2 = O=C1CC[C@H](N*)C(=O)N1
molecules and their reported IC50
Please respond with the number in M and leave the unit unwritten.

Example cases with answers are listed next.
1) O=C(CNC(=O)CNC(=O)OCC1c2ccccc2-c2ccccc21)NCC(=O)N[C@@H](Cc1ccccc1)C(=O)N[C@@H]1CCC(=O)NC1=O [Fmoc-GGGFepicQ] (Fmoc-GGGF-X3)
7.69e-07
2) C[C@H](NC(=O)CNC(=O)CNC(=O)CN)C(=O)N[C@H]1CC(=O)NC1=O [GGGAcN] (H-GGGA-Aspartimide)
3.44e-07
3) O=C(CNC(=O)CNC(=O)OCC1c2ccccc2-c2ccccc21)NCC(=O)N[C@@H](Cc1ccccc1)C(=O)N[C@H]1CCC(=O)NC1=O [Fmoc-GGGFcQ] (Fmoc-GGGF-X2)
1.28e-07

Name the reported IC50 value associated with the molecule C[C@H](NC(=O)CNC(=O)CNC(=O)CN)C(=O)N[C@@H]1CC(=O)NC1=O [GGGAepicN] (H-GGGA-X1) 1.12e-05

Any idea what IC50 was measured for CN1C(=O)CCC(N2Cc3c(N)cccc3C2=O)C1=O (centres unmarked) [Me-Len, reference compound] ? 1.53e-05

###

Catalogue of pIC50 (M) values
- targetEntity: His6-CRBN/DDB1 (Homo sapiens, UniProt Q96SW2)
- measurementProtocol: TR-FRET ligand displacement assay (Thal-FITC tracer) with His6-CRBN/DDB1
- runConditions: Protein CRBN; Thalidomide-FITC tracer 50 nM
Express the result in M but write the number alone.

1. Cc1sc2c(c1C)C(c1ccc(Cl)cc1)=N[C@@H](CC(=O)NCCCCCCCCC(=O)N[C@@H](Cc1ccccc1)C(=O)N[C@H]1CCC(=O)NC1=O)c1nnc(C)n1-2
6.86
2. Cc1sc2c(c1C)C(c1ccc(Cl)cc1)=N[C@@H](CC(=O)NCCCCCCCCC(=O)N[C@@H](Cc1ccccc1)C(=O)N[C@H]1CC(=O)NC1=O)c1nnc(C)n1-2
7.42
3. Cc1ccc(NC(=O)NCc2ccc3c(c2)CN(C2CCC(=O)NC2=O)C3=O)cc1Cl (racemic)
8.29

Turning now to a further compound:
Name the reported pIC50 (M) value associated with the compound Cc1sc2c(c1C)C(c1ccc(Cl)cc1)=N[C@@H](CC(=O)NCCCCCCCCC(=O)N[C@@H](Cc1ccccc1)C(=O)N[C@@H]1CCC(=O)NC1=O)c1nnc(C)n1-2 [JQ1-FepicQ] 6.08

###

- measurementProtocol: Time-course study of racemization of lenalidomide, photo-lenalidomide and deuterated analogs in RPMI medium
- Assay type: physicochemical
- runConditions: RPMI media, 37 °C, read-out: t50%ee (racemization half-life) (converted)
Overview of recorded half-life at 100 µM for various molecules
Just the number please, in h, no unit attached.

1. Nc1cccc2c1CN([C@H]1CCC(=O)NC1=O)C2=O [(S)-lenalidomide]
4.2

# evaluate next
Tell me the measured half-life at 100 µM of Nc1cccc2c1CN([C@@H]1CCC(=O)NC1=O)C2=O [(R)-lenalidomide] , please. 4.3
